assay: soluble fraction after stress (log2 fold change); higher = more stays soluble; pooled small domains, quantitative proteomics; conditions: stress: 75 degC;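 further: 20 min heating vs room temperature control held 20 min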
Criterion: soluble fraction (log2) meeting or surpassing -2. Met: label 1. Not met: label 0.

HMSWEELLEHLEKAAERGEEVRIAGVTLHDEEDFKRALRWLKEWL | label 0
HMSDYLGSLSHEEKMIFNHFDEDSSTIENMAKKTELKPELISQIFLNLELRGFLRQTEGGLYEKI | label 1
HMGDTIFINNNFYVKHIVEFGETIDIISKIYDVSVNKILETNETSTKLYSGQSLFIPININV | label 0
HMEEQKYEYHLGDVVYLGVDKYEILGITNNIVTLYDPEFPLLNKQLDFDEFEKRVKDNYANEHLKVT | label 1
HMEVLPLHQVKLKYAEADTILIALKSAQSMLSPRGQLLADNRSQQIFVYDDEAHTATLIEAIKHLDQPL | label 1

Query: Does the sequence HMSLGSNISRLRAEKHLSQGDLAEALDVSRQSVSKWETDGSVPDLDKLVKLSRIFGVTLDELVTGTP have recorded soluble fraction (log2) that is -2 or more?
Response: label 1

Query: Reported soluble fraction (log2) at or above -2? HMIHANGLTDRQEMILEFIRSYISENNYPPSVREIGKGVGLASSASVHNNMKKLASLGFLNWDTD
Response: label 1

Query: Can HMEALSAREIEILQALETGASNRELAKMLFISEATVKTHLVHIYQKLGVGTRTAAITEARERRV be said to have soluble fraction (log2) at or above -2?
Response: label 0

====

Give measured soluble fraction (log2) for each item. Keep answers brief.
assay: soluble fraction after stress (log2 fold change); higher = more stays soluble; pooled small domains, quantitative proteomics; details: stress: 75 degC
Numbers only.

HMPDPVHAAYLRLAVLLTEQAIGPQVTEQQIRDRFALTRRQTSDLMGRLIREGIAEKRAGYGWNINTELTA | -1.16

Dear colleague, could you please provide soluble fraction (log2) for the sequences listed below?
1. HMAAQDIILKRNAEQIEAIVKEITDTDVKYRKFTNTEGVTYSIRRSEVFSITYENGTMDLFA
2. HMKSIFIRADELAAELDVSKALAYKMINQWNEELKAKGYTTVGGRVSRQYYYEKIYGAENVFDF
3. HMEAPMPIFWRPQFRIGHDDIDADHRYLILLINTVELVLRFPDDPRNVELALTELRRYAEDHFEREER

Response:
0.248
-1.76
-0.0783

For each of the items listed, what is its soluble fraction (log2)?
1. HMATPTEHQLQAQARAVVEKAERLLDRASADDREDIINLIEKITDALAAEDFTAVKAPLAELSDILFYLE
2. HMAAVEDLPVKSVNGKKYHYYTVQPKESLYSLSHKLGISRQEIIKYNPGVEDGLKAYEDLLFPYTPK
3. HMGLVLIDSYNDIGSAKLITNKIRNLGLIFEENENKINVFAGPFEKNDINLKIDFLIRNGYTNAQLY
4. HMGAVGISQKVTSLETAVLGKNFAKDPLIDRVARLEQTVLPKQAEANASLSLPERVSKLLEKVPIAAG
5. HMSSLSGVRRTLLDSLGMPPDASDEELADRREELRGSLDTAPQARRKWIEQQLARIDAITALDASG
6. HMVDDTGLPTVLISDGRLLERNLHRLHLDHTWLQRRLEENNIPSIQSLFLLTVDKQHQLYFLKK
7. HMYALGIPVSQYRRTTQVLGHESSYPIAYEDEKQDDDFYLFKFPNIDEYDFKKIVILLKQNGITT
8. HMVEGMQFDRGYQSPYFVTNAEKMVAELDNPYILLVEKKISSMKELLPVLEPVAQQGKSLLIISEEVEG

Response:
1: -0.104; 2: 0.192; 3: -3.08; 4: 0.109; 5: 0.106; 6: -1.74; 7: -2.11; 8: 0.0546

# batch: return soluble fraction (log2) for each of the 3 sequences below
1. HMEKINLIIEEDNNLRLDKVIAMQLQELSRTQIQDMINQGLVLVNQKKEKASYKTKLNDEIEITILD
2. HMGDFLLTPHRGRSADFVIGNPPYIRLEDVPNDISDAYRAEYASMPGRADIHVGFYEKGLDL
3. HMEILVSTRRHEIASLLSRKKRVSFFELFPEKTKEYVVATFLAILEMAKAREVNITQEDTFDEIIVEEA

Response:
[-1.13, -0.117, -2.18]

====

experiment: soluble fraction after stress (log2 fold change); higher = more stays soluble; pooled small domains, quantitative proteomics; details: stress: 75 degC
What soluble fraction (log2) was measured for each of the following?

The following sequences have reported results that may help.
HMQQDVLKLKSGGNYKGEYINIESAYVLFKPEGGNATQRIKVNEIQMLKLADGTEVIFGGRVK | -0.237
HMPNTLAGIERYLGSGMVKGIGPVYASRLVSAFGTAVFDVIEQTPERLREIDGIGEKRTRKITSGWADQ | -0.213
HMKKGATVSGVIVEKTKKSLIIDLGAKTEGVVADKEFEFAIDFVKELKKGDEVKAIVISTDNDKGQVVLSL | -0.414

// each sequence listed below needs its soluble fraction (log2)
1. HMKTNQINVSGLSKEKNFEVLESLDVYKFYNLFFLNKIKIDQLINSYNHIDNYSVFKKYPSSLIVKLSE
2. HMFPNQLLISRLSNQLSASERFAAVSSIAQLKNIDYDVLHVLVHTMNSDPNSNVRLAALEALSR
3. HMSSTSTMTVAEATIGRKVKHDKFGEGTIITVADVNGDKKLTIAFNQQGVKMLMLSMAKLEL
4. HMGGYLIGDVAQMVGLSRDALRFYEKKGIIRADKKENGYRYYSEDDIYRLMYILYHRKMNTSLEEIGGLMS
5. HMGHTVHAVPEAADRQRLDVFVGNLHPTISRAYIQKLSKEDQILVNGKPEKAGFKLRTGHSVSVPDMSE

Response:
1. 0.0213
2. -0.459
3. -3.36
4. -0.722
5. 0.00554

====

Would you mind telling me the reported soluble fraction (log2) of each entry?
assay: soluble fraction after stress (log2 fold change); higher = more stays soluble; pooled small domains, quantitative proteomics; details: stress: 75 degC
One number for each entry.

Completed entries (count: 8):
HMKSVILQLHPETLRWIREEAQADMADASVIQLLNDWELGTKKPTLSQVQKLSHETHIPFGYFFLKEKPA | -0.64
HMQTQYIVDTKTTLLVRTGPGKSNSQFGRLKNGETINVYAIKNGWAEISYNGKTGYVSEQYIKLA | -3.59
HMDSLEIEEPITVKSLSAASGLKISDIIRKLMQEGIMATANQVIDREQAEAVLIDYNVDLVVKR | -0.281
HMSDDVELLGRLSDREVSVLQYLSQGYSNKQISEQMFISNKTVSTYKARLLLKLNAGSLVDLIEFAKRNTL | -1.35
HMISQLRGKVLGTDRDALVIDVGGVGFRVSATAGARALAGQSGNEARLFTEMVVREDSIDLFGF | 0.0812
HMEVPNLIGMTDKDLQRTYFQLPIEAAGDGSVVIKQLPEPGEKVKEGSVIRVLLG | 0.193
HMRRGKLGMASRLEQIPGIGPKKRKALLKAFGNSIDAIKSAPVEDLMKVKGINLVLAESIKEL | -0.11
HMPDLSYVDEVLNRYKGHKGTLITVLQQVQAHKGYLEKEALERVARSMGVPTARIYGVVTFYAQFR | 0.138

Look at each sequence and report its soluble fraction (log2).
1. HMINSFDYLQAIFTELMKSQSKMTNQDAAKRLFMQGKVAVSNRDREGLRMVLAQLVTLLPKEELGGLSTVS
2. HMILESREKYLGEVLEVLVEEEKEGEYFGYSQNYLRVKFKLEEKNLINQLINIKIKSIEDDILIGEKEN

Response:
[-1.38, -3.46]

Provide the reported soluble fraction (log2) of each entry below, same order.
1. HMEFEIGQEDSKKSVKQFLYNTLRLSHGQVTALKRQERGILLNGERVFVTALLQEGDRLSLLLE
2. HMEIPTPAELREKRIRMGLKQADVARMAGISQSMVARIESGSVDPRVSTLAKIVEVLQAAER
3. HMNDTVGMNIRRLRKERGMTQGDLADKAGIQRETISKYESNKLTPPSYNLESIEKALKVPAGTLAQ

Response:
[-1.7, -0.488, 0.176]

====

assay: soluble fraction after stress (log2 fold change); higher = more stays soluble; pooled small domains, quantitative proteomics; conditions: stress: 75 degC
Field: soluble fraction (log2). Provide a value for each of the sequences that follow.
Answers are plain numbers.

Known results for sequences:
HMSQDTLIGRVGVIVIGQARTGSPAQVRVKDGFGQTHYVMAEPDSEGVLKQGEAVLLVSLEGNTFKAILNP | -2.41
HMNDELMEQIDEWHKAEKHQEIIDALEQIPEAERDFETTGFLARAYNNIEEYAKAADLLESVRE | 0.0973
HMVDDRPVTGTTLIREWQGRAYEVIVQAGHFEFQGQRYQSLSAIAKVITGTVWNGWAFFGLR | -0.415
HMTSHPTHTILDGKVHVFMRDGSPFWWGGFHFKGKYLRTSTKQKNLDSAKTIAQQWYFQKQTEIASGE | -2.85
HMNKETYIDALERKLWDRLDPDQLRDIISYYKDYFAMEAAKGISEEETIRKLGDPALLAKSILAAE | -0.332
HMSPPALAVQRDGSNVQISWPGAEEGWRLESSAEPSGAAWDLIAQNPTPVGGRWTVSLTEPTGRRFYRLVK | -0.0804

Provide each entry's soluble fraction (log2) from the list below.
1. HMTKRKNTEFRQQQIIEAAAKLIFKYGSEHLTVKRIAAQVGISEAAIYRHFTSKKSILSFLLSHIEE
2. HMKSEMYIDLSNALLKMSERDKELLTYRYTMEMSSKEISQITGIKESNVNSYIRRAREKLLKIFNAMNK

Response:
-0.362
-3.73

Cited source for all entries: the domain aggregation screens of Martell et al. (2025)
